Tested on: Candida albicans
Assay: Antifungal activity against Candida albicans after 48 hrs […]
Assay type: functional
Assay Endpoint: MIC (µg/mL)

[
  {
    "Molecular String": "Fc1cc(-c2nnc3n2N=C(Nc2cc(Cl)c(Cl)cc2Cl)CS3)c(Cl)cc1Cl",
    "Unit Tag": "µg/mL",
    "Recorded Number": 6.25
  }
]

[I] CCOc1ccc(NC2=Nn3c(nnc3-c3cc(F)c(Cl)cc3Cl)SC2)cc1
[II] Cc1cccc(NC2=Nn3c(nnc3-c3cc(F)c(Cl)cc3Cl)SC2)c1C
[III] Cc1ccc(NC(=O)CSc2nnc(-c3cc(F)c(Cl)cc3Cl)n2N)cc1
Problem: Please give the order of these molecules when sorted by MIC, largest value leading. I'd appreciate it if you listed the labels in the requested order.
Solution: II, I, III
(II: 25 µg/mL, I: 12.5 µg/mL, III: 6.25 µg/mL)

[P] Nn1c(SCC(=O)Nc2ccc(Cl)cc2)nnc1-c1cc(F)c(Cl)cc1Cl
[Q] Nn1c(SCC(=O)Nc2ccc(F)cc2)nnc1-c1cc(F)c(Cl)cc1Cl
Problem: Param pair: P , Q . Output: the one whose MIC is numerically greater. Please indicate the selected item by its label.
Solution: P

* * *

System: Candida albicans
Assay: Antifungal activity against Candida albicans after 48 hrs […]
Format: functional
Listed next: entries and their corresponding MIC.

Observe how each entry below is paired with its result.
[
  {
    "Molecular String": "Nn1c(SCC(=O)Nc2cccc(Cl)c2Cl)nnc1-c1cc(F)c(Cl)cc1Cl",
    "Result": "> 100 µg/mL"
  },
  {
    "Molecular String": "Cc1ccc(NC(=O)CSc2nnc(-c3cc(F)c(Cl)cc3Cl)n2N)c(C)c1",
    "Result": "12.5 µg/mL"
  },
  {
    "Molecular String": "Nn1c(SCC(=O)Nc2ccc(Cl)cc2Cl)nnc1-c1cc(F)c(Cl)cc1Cl",
    "Result": "> 100 µg/mL"
  }
]

Please turn your attention to the following entry.
Problem: Please give the measured MIC for this compound: CCOc1ccc(NC(=O)CSc2nnc(-c3cc(F)c(Cl)cc3Cl)n2N)cc1
Solution: > 100 µg/mL
